Listed next: entries and their corresponding ELISA [abs. corr.].
Target: T1, CD27 protein (His-tagged, Sino Biological Inc. 10039-H08B1) (human, UniProt P26842 20-192)
T1 construct: bought; coated onto ELISA plates; also called human CD27; recombinant protein; not shown: His tag
T1 sequence (looked up): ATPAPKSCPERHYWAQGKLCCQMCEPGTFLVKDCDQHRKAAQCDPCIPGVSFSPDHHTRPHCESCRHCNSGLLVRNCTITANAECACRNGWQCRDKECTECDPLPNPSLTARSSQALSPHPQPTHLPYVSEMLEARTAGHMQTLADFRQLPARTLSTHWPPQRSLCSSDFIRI
Assay: ELISA on coated His-tagged CD27; note: test concentration or dose not given here
measured_quantity: ELISA [abs. corr.]

binder	recorded_measurement
P018.S.10.A.E04 (antibody, V domains shown, V regions on human Ig constant parts; also called AB27_177) VH: QSLEESGGDLVKPGASLTLTCTASGFSFSSSYWICWVRQAPGKGLEWVACISAPGSGSTFDASWAKGRFTISKTSSTTVTLQMTSLTAADTATYFCARFYAGGSGDYFDLWGPGTLVTVSS VL: QIVMTQTPSSTSEPVGGTVSIKCQASQNIGSYLAWYQQKPGQPPKVLIYTTSDLASGVPSRFKGSGSGTQFTLTISDLESDDAATYYCLGVYGYSSDDVAFGGGTEVVVK	3.15 abs. corr.
P018.S.10.A.H02 (antibody, V domains shown, V regions on human Ig constant parts; also called AB27_185) VH: QSLEESGGRLVTPGGSLTLTCTVSGIDLSSYAMGWFRQAPGKGLEYIGIIYSSGSTWFANWVKGRFTISKTSTTVDLKMTSLTTEDTATYFCARYSAADHGDKFKLWGQGTLVTVSS VL: AAVLTQTPSPVSAAVGGTVSISCQSSKNIFDNTRLSWFQQKPGQPPKQLIYGASTLASGVPSRFSGSGSGTQFTLTISGVQSDDAATYYCLGEYSSDSDTSFGGGTEVVVK	3.25 abs. corr.
